The values you see were collected from PubChem BioAssay (NCI).

- Test system: SW-620 colon
- assayName: NCI-60 one-dose screen, 48 h (100 = growth as untreated, 0 = no growth, -100 = all killed)
- conditionInfo: 10 µM unless noted
- Description: Growth inhibition of the SW-620 human tumor cell line is measured as a screen for anti-cancer activity. Cells are grown in 96 well plates and exposed to the test compound for 48 hours. Compounds are tested at a single concentration, which is 10^-5 M for most compounds. The reported endpoint is percent growth (GI% or GIPRCNT), where numbers from 0 - 100% represent growth inhibition, and numbers from -100% - 0 represent cell death. For example, a value of 40 represents 60% growth inhibition. […]
About 83,000 compounds went through this panel and 20% of them were active in at least one assay; those are over-represented in the sample as a whole.
In this section we review reported growth values for a set of molecules.
parameter: growth (%)

{"molecule": "C/C(=C(/c1ccc(O)cc1)c1ccc(OCCN(C)C)cc1)c1ccccc1", "subjectOfTest": "SW-620 colon", "parameter": "growth", "unit": "%", "quantitativeReadout": 101}
{"molecule": "O=C1C[C@H](Sc2nc(-c3ccc(F)cc3)cc(C(F)(F)F)n2)[C@H]2CO[C@@H]1O2", "subjectOfTest": "SW-620 colon", "parameter": "growth", "unit": "%", "quantitativeReadout": 67.5}
{"molecule": "CCCN(CCC)CN(CCC)CCC", "subjectOfTest": "SW-620 colon", "parameter": "growth", "unit": "%", "quantitativeReadout": 103}
{"molecule": "O=S(=O)(Nc1ccc(F)c(Cl)c1)c1ccc(-c2cnc(C3CC3)o2)cc1", "subjectOfTest": "SW-620 colon", "parameter": "growth", "unit": "%", "quantitativeReadout": 17.3}
{"molecule": "O=C1/C(=C/c2ccc(Cl)cc2Cl)CN(S(=O)(=O)c2ccccc2)C/C1=C\\c1ccc(Cl)cc1Cl", "subjectOfTest": "SW-620 colon", "parameter": "growth", "unit": "%", "quantitativeReadout": -15.2}
{"molecule": "COc1ccc2nc3cc(Cl)ccc3c(N3CCN(c4nccc(Nc5ccccc5)n4)CC3)c2c1", "subjectOfTest": "SW-620 colon", "parameter": "growth", "unit": "%", "quantitativeReadout": 59.7}
{"molecule": "CC(=O)C1=C(O)C=C2Oc3c(C(=O)/C=C/c4ccccc4)c(O)c(C)c(O)c3[C@]2(C)C1=O", "subjectOfTest": "SW-620 colon", "parameter": "growth", "unit": "%", "quantitativeReadout": 49.9}
{"molecule": "Oc1c(Cl)cc(Cl)cc1CNc1nccnn1", "subjectOfTest": "SW-620 colon", "parameter": "growth", "unit": "%", "quantitativeReadout": 102}
{"molecule": "O=[N+]([O-])c1cccc(-c2nc3sccn3c2-c2ccnc(NCCCNS(=O)(=O)c3cccc(F)c3)n2)c1", "subjectOfTest": "SW-620 colon", "parameter": "growth", "unit": "%", "quantitativeReadout": 22.9}
{"molecule": "NC1=CC(=O)C(=O)c2ccccc21", "subjectOfTest": "SW-620 colon", "parameter": "growth", "unit": "%", "quantitativeReadout": 98.9}
{"molecule": "COc1ccc(OCC(=O)Nc2ccc(-c3nc4ccccc4s3)cc2C)cc1", "subjectOfTest": "SW-620 colon", "parameter": "growth", "unit": "%", "quantitativeReadout": 97}
{"molecule": "c1ccc2c(Nc3cccc4ccccc34)cccc2c1", "subjectOfTest": "SW-620 colon", "parameter": "growth", "unit": "%", "quantitativeReadout": 19}
{"molecule": "CC1CN(C(C)C)C(=S)N(c2ccccc2)C1=O (configuration not stated)", "subjectOfTest": "SW-620 colon", "parameter": "growth", "unit": "%", "quantitativeReadout": 108}
{"molecule": "CN(C)CCOc1ccc(-c2nc3ccc(-c4nc5ccc(N6CCN(C)CC6)cc5[nH]4)cc3[nH]2)cc1", "subjectOfTest": "SW-620 colon", "parameter": "growth", "unit": "%", "quantitativeReadout": 66.3}
{"molecule": "COc1cc(NCCCCCN=C(N)NC(N)=NC(C)C)c2ncccc2c1", "subjectOfTest": "SW-620 colon", "parameter": "growth", "unit": "%", "quantitativeReadout": 25.2}
{"molecule": "Cc1ccc2cnc(N)c(C#Cc3cncc(C(=O)Nc4ccc(CN5CCN(C)CC5)c(C(F)(F)F)c4)c3)c2c1", "subjectOfTest": "SW-620 colon", "parameter": "growth", "unit": "%", "quantitativeReadout": -86.1}
{"molecule": "CN1CCN(Cc2ccc(NC(=O)c3cncc(C#Cc4cncc5nccnc45)c3)cc2C(F)(F)F)CC1", "subjectOfTest": "SW-620 colon", "parameter": "growth", "unit": "%", "quantitativeReadout": 26.4}
{"molecule": "O=c1c2c3c(sc2n2c(CCl)nnc2n1Cc1ccccc1)CCCC3", "subjectOfTest": "SW-620 colon", "parameter": "growth", "unit": "%", "quantitativeReadout": -82.9}
{"molecule": "O=C(C[C@@H](C(=O)NCc1cccc(C(F)(F)F)c1)N1C(=O)[C@@H](N2C(=O)OC[C@@H]2c2ccccc2)[C@H]1/C=C/c1ccccc1)NC1CCN(Cc2ccccc2)CC1", "subjectOfTest": "SW-620 colon", "parameter": "growth", "unit": "%", "quantitativeReadout": 59.8}
{"molecule": "CN1CCN(Cc2ccc(NC(=O)c3cncc(C#Cc4c(N)ncc5ccc(C#N)cc45)c3)cc2C(F)(F)F)CC1", "subjectOfTest": "SW-620 colon", "parameter": "growth", "unit": "%", "quantitativeReadout": -69.2}
{"molecule": "O=C1CC(c2nc3ccccc3[nH]2)CN1C1CCCCC1 (configuration not stated)", "subjectOfTest": "SW-620 colon", "parameter": "growth", "unit": "%", "quantitativeReadout": 106}
{"molecule": "Cc1ccc(S(=O)(=O)N(CCc2ccc(Cl)cc2)S(=O)(=O)c2ccc(C)cc2)cc1", "subjectOfTest": "SW-620 colon", "parameter": "growth", "unit": "%", "quantitativeReadout": 101}
{"molecule": "COC1/C=C\\OC2(C)Oc3c(C)c(O)c4c(O)c(c(CN(C)CCO)c(O)c4c3C2=O)NC(=O)/C(C)=C\\C=C/C(C)C(O)C(C)C(O)C(C)C(OC(C)=O)C1C (configuration not stated)", "subjectOfTest": "SW-620 colon", "parameter": "growth", "unit": "%", "quantitativeReadout": 105}
{"molecule": "COc1ccc(-c2cc(/C=C3\\C(=O)Nc4ccc(Cl)cc43)[nH]n2)cc1", "subjectOfTest": "SW-620 colon", "parameter": "growth", "unit": "%", "quantitativeReadout": 26.9}
{"molecule": "O=C1O[C@H]([C@H](O)CO)C(O)=C1O", "subjectOfTest": "SW-620 colon", "parameter": "growth", "unit": "%", "quantitativeReadout": 87.3}
{"molecule": "O=C(CCCN1CCOCC1)Nc1ccc(Cn2nnc3c2C(=O)c2nnn(Cc4ccc(NC(=O)CCCN5CCOCC5)cc4)c2C3=O)cc1", "subjectOfTest": "SW-620 colon", "parameter": "growth", "unit": "%", "quantitativeReadout": 30.2}
{"molecule": "CCOC(=O)c1cnc2ccc(OC)cc2c1Nc1cccc(S(=O)(=O)NC)c1", "subjectOfTest": "SW-620 colon", "parameter": "growth", "unit": "%", "quantitativeReadout": 113}
{"molecule": "Nc1nc(-c2ccc(F)cc2)cc(-c2cnn(-c3ccccc3)n2)n1", "subjectOfTest": "SW-620 colon", "parameter": "growth", "unit": "%", "quantitativeReadout": 99.3}
{"molecule": "CCOC(=O)c1c2c(n3ccc(NC(=O)CCN4CCCCC4)cc13)C(=O)c1ncccc1C2=O", "subjectOfTest": "SW-620 colon", "parameter": "growth", "unit": "%", "quantitativeReadout": -20.2}
{"molecule": "Cc1ccc(NC(=O)c2sc3nc4c(cc3c2N)C(=O)CCC4)cc1C", "subjectOfTest": "SW-620 colon", "parameter": "growth", "unit": "%", "quantitativeReadout": 18.9}
{"molecule": "Clc1nc(Cl)c2c3c(sc2n1)CCCC3", "subjectOfTest": "SW-620 colon", "parameter": "growth", "unit": "%", "quantitativeReadout": 34.3}
{"molecule": "CSc1ccc(N=C=C(c2ccccc2)c2ccccc2)cc1", "subjectOfTest": "SW-620 colon", "parameter": "growth", "unit": "%", "quantitativeReadout": 86}

====

In this section we review reported growth values for a set of molecules.
- Test system: CAKI-1 renal
- assayName: NCI-60 one-dose screen, 48 h (100 = growth as untreated, 0 = no growth, -100 = all killed)
- conditionInfo: 10 µM unless noted
About 83,000 compounds went through this panel and 20% of them were active in at least one assay; those are over-represented in the sample as a whole.
parameter: growth (%)

{"molecule": "COc1ccc(CCN2CC=Cn3c2nc2ccccc2c3=O)cc1", "parameter": "growth", "quantitativeReadout": 26.9}
{"molecule": "Nc1cccc(NC(=O)C(=O)Nc2cccc(N)c2)c1", "parameter": "growth", "quantitativeReadout": 78.1}
{"molecule": "COc1cccc2c1C(=O)c1c(O)c3c(c(O)c1C2=O)C[C@@](O)(/C(C)=N/NC(=O)c1ccc(Cl)cc1)C[C@@H]3OC1CC(N)C(O)C(C)O1 (some centres undefined)", "parameter": "growth", "quantitativeReadout": -53.2}
{"molecule": "CCCCN(CC)CCCCCCCCCCN1CCCc2cc(OC)ccc21", "parameter": "growth", "quantitativeReadout": 6.91}
